assay: The drug is tested on Bacteroides fragilis strain: HMW615 for biotransformation. The drug concentrations were measured before and after a 12-h incubation by liquid-chromatography-coupled mass spectrometry (LC–MS); conditions: 2 µM
Parameter Measured: Bacterial Biotransformation

Here are 4 compounds together with their reported answers.
                                   compound        value_reported
0       Cc1cc2c(s1)Nc1ccccc1N=C2N1CCN(C)CC1  Compound metabolized
1  C#C[C@]1(O)CC[C@H]2[C@@H]3CCC4=CC(=O)CC[C@@H]4[C@H]3CC[C@@]21CC  Compound metabolized
2  COC(=O)[C@H](c1ccccc1Cl)N1CCc2sccc2C1.O=S(=O)(O)O [CLOPIDOGREL BISULFATE]  Compound metabolized
3  O=P1(N(CCCl)CCCl)NCCCO1 (centres undefined) [CYCLOPHOSPHAMIDE ANHYDROUS]  Compound metabolized

Prompt: For the compound N#Cc1ccc(C(c2ccc(C#N)cc2)n2cncn2)cc1 , give its reported Bacterial Biotransformation.
Completion: Compound NOT metabolized

Prompt: For the compound CCC1(c2ccc(N)cc2)CCC(=O)NC1=O (centres undefined) [AMINOGLUTETHIMIDE] , give its reported Bacterial Biotransformation.
Completion: Compound NOT metabolized

Prompt: For the compound CCOC(=O)C1=C[C@]2(CC)CCCN3CCc4c(n1c1ccccc41)[C@@H]32 , give its reported Bacterial Biotransformation.
Completion: Compound NOT metabolized

Prompt: For the compound CCCC(C)(COC(N)=O)COC(=O)NC(C)C (centres undefined) , give its reported Bacterial Biotransformation.
Completion: Compound metabolized

Prompt: For the compound C[C@@H]1CC[C@H]2[C@@H](C)C(=O)O[C@@H]3O[C@@]4(C)CC[C@@H]1[C@]32OO4 , give its reported Bacterial Biotransformation.
Completion: Compound metabolized

---

conditions: bacteroides eggerthii, 12 h, 2 µM
Description: The drug is tested on Bacteroides eggerthii strain: DSM20697 for biotransformation. The drug concentrations were measured before and after a 12-h incubation by liquid-chromatography-coupled mass spectrometry (LC–MS)
Parameter Measured: Bacterial Biotransformation

Here are 10 molecules together with their reported answers.
>>> print(df.to_string())
                                   molecule            value_reported
0   COc1ccc(/C=C/C(=O)Nc2ccccc2C(=O)O)cc1OC  Compound NOT metabolized
1  O=C(O)CCC(=O)O.O=C(O[C@H]1CN2CCC1CC2)N1CCc2ccccc2[C@@H]1c1ccccc1 [SOLIFENACIN SUCCINATE]  Compound NOT metabolized
2  CCN1CCCC1CNC(=O)c1cc(S(=O)(=O)CC)c(N)cc1OC (centres undefined) [AMISULPRIDE]  Compound NOT metabolized
3  O=c1[nH]c2ccccc2n1CCCN1CCC(n2c(=O)[nH]c3cc(Cl)ccc32)CC1 [DOMPERIDONE]  Compound NOT metabolized
4  Nc1ccc(/N=N/c2ccccc2)c(N)n1 [PHENAZOPYRIDINE]      Compound metabolized
5  CC(=O)OCC(CCn1cnc2cnc(N)nc21)COC(C)=O [FAMCICLOVIR]      Compound metabolized
6  O=C1CN2Cc3c(ccc(Cl)c3Cl)N=C2N1 [ANAGRELIDE]  Compound NOT metabolized
7  Br.CN(C)CCCC1(c2ccc(F)cc2)OCc2cc(C#N)ccc21 (centres undefined) [CITALOPRAM HYDROBROMIDE]  Compound NOT metabolized
8  CC[C@H](C)C(=O)O[C@H]1CCC=C2C=C[C@H](C)[C@H](CC[C@@H]3C[C@@H](O)CC(=O)O3)[C@H]21 [MEVASTATIN]      Compound metabolized
9  C[C@@H]1CC[C@H]2[C@@H](C)C(=O)O[C@@H]3O[C@@]4(C)CC[C@@H]1[C@]32OO4 [ARTEMISININ]      Compound metabolized

Prompt: For the molecule CC(C)NCC(O)c1ccc(NS(C)(=O)=O)cc1 (centres undefined) [SOTALOL] , give its reported Bacterial Biotransformation.
Completion: Compound NOT metabolized

Prompt: For the molecule CNCCC(Oc1ccc(C(F)(F)F)cc1)c1ccccc1 (centres undefined) [FLUOXETINE] , give its reported Bacterial Biotransformation.
Completion: Compound metabolized

Prompt: For the molecule CN1CCN2c3ccccc3Cc3ccccc3C2C1 (centres undefined) [MIANSERIN] , give its reported Bacterial Biotransformation.
Completion: Compound NOT metabolized

Prompt: For the molecule CCOC(=O)C1=C[C@]2(CC)CCCN3CCc4c(n1c1ccccc41)[C@@H]32 [VINPOCETINE] , give its reported Bacterial Biotransformation.
Completion: Compound NOT metabolized

Prompt: For the molecule CCC(=O)NCC[C@@H]1CCc2ccc3c(c21)CCO3 [RAMELTEON] , give its reported Bacterial Biotransformation.
Completion: Compound metabolized

Prompt: For the molecule CN(C)CCC=C1c2ccccc2COc2ccccc21 [DOXEPIN] , give its reported Bacterial Biotransformation.
Completion: Compound NOT metabolized

Prompt: For the molecule CN1CCc2cccc3c2[C@H]1Cc1ccc(O)c(O)c1-3 [APOMORPHINE] , give its reported Bacterial Biotransformation.
Completion: Compound NOT metabolized

Prompt: For the molecule O=C1CC2(CCCC2)CC(=O)N1CCCCN1CCN(c2ncccn2)CC1 [BUSPIRONE] , give its reported Bacterial Biotransformation.
Completion: Compound NOT metabolized

Prompt: For the molecule COc1c2occc2cc2ccc(=O)oc12 [METHOXSALEN] , give its reported Bacterial Biotransformation.
Completion: Compound metabolized

---

experiment: The drug is tested on Providencia rettgeri strain: DSM1131 for biotransformation. The drug concentrations were measured before and after a 12-h incubation by liquid-chromatography-coupled mass spectrometry (LC–MS); format: ADME; parameters: dose 2 uM, timepoint 0 vs 12 hours; details: 2 µM
Parameter Measured: Bacterial Biotransformation

Here are 5 compounds together with their reported answers.
Compound	Bacterial Biotransformation
c1ccc([C@H]2CN3CCSC3=N2)cc1	Compound NOT metabolized
CC(C)NCC(O)COc1ccc(COCCOC(C)C)cc1.CC(C)NCC(O)COc1ccc(COCCOC(C)C)cc1.O=C(O)/C=C/C(=O)O (stereo not drawn) [BISOPROLOL FUMARATE]	Compound NOT metabolized
CCCc1nc2c(C)cc(-c3nc4ccccc4n3C)cc2n1Cc1ccc(-c2ccccc2C(=O)O)cc1	Compound NOT metabolized
OCCN(CCO)c1nc(N2CCCCC2)c2nc(N(CCO)CCO)nc(N3CCCCC3)c2n1	Compound NOT metabolized
COC(=O)[C@H](c1ccccc1Cl)N1CCc2sccc2C1.O=S(=O)(O)O [CLOPIDOGREL BISULFATE]	Compound NOT metabolized

Prompt: For the compound COc1ccc(/C=C/C(=O)Nc2ccccc2C(=O)O)cc1OC , give its reported Bacterial Biotransformation.
Completion: Compound NOT metabolized

Prompt: For the compound CN1CCc2cccc3c2[C@H]1Cc1ccc(O)c(O)c1-3 , give its reported Bacterial Biotransformation.
Completion: Compound NOT metabolized

Prompt: For the compound CC(C)(C)NC[C@H](O)COc1nsnc1N1CCOCC1.O=C(O)/C=C\C(=O)O [TIMOLOL MALEATE] , give its reported Bacterial Biotransformation.
Completion: Compound NOT metabolized

---

experiment: The drug is tested on Eubacterium ventriosum strain: ATCC27560 for biotransformation. The drug concentrations were measured before and after a 12-h incubation by liquid-chromatography-coupled mass spectrometry (LC–MS); type: ADME; parameters: dose 2 uM, timepoint 0 vs 12 hours; conditions: 2 µM
Parameter Measured: Bacterial Biotransformation

In [3]: df
Out[3]:
                                   molecule           parameter_measured            value_reported
0  CCC(=O)NCC[C@@H]1CCc2ccc3c(c21)CCO3 [RAMELTEON]  Bacterial Biotransformation  Compound NOT metabolized
1  CN1CCC(=C2c3ccccc3CC(=O)c3sccc32)CC1.O=C(O)/C=C/C(=O)O [KETOTIFEN FUMARATE]  Bacterial Biotransformation  Compound NOT metabolized
2  CC(=O)OCC(=O)[C@@]1(O)[C@@H](C)C[C@H]2[C@@H]3CCC4=CC(=O)C=C[C@]4(C)[C@@]3(F)[C@@H](O)C[C@@]21C [BETAMETHASONE ACETATE]  Bacterial Biotransformation  Compound NOT metabolized
3  CN(C)CCc1c[nH]c2ccc(CS(=O)(=O)N3CCCC3)cc12 [ALMOTRIPTAN]  Bacterial Biotransformation  Compound NOT metabolized
4  NC(CO)(CO)CO.O=C(c1ccccc1)c1ccc2n1CCC2C(=O)O (stereo not drawn) [KETOROLAC TROMETHAMINE]  Bacterial Biotransformation  Compound NOT metabolized

Prompt: For the molecule Clc1ccc(Cn2c(CN3CCCC3)nc3ccccc32)cc1 [CLEMIZOLE] , give its reported Bacterial Biotransformation.
Completion: Compound NOT metabolized

Prompt: For the molecule C[C@@H](c1ncncc1F)[C@](O)(Cn1cncn1)c1ccc(F)cc1F [VORICONAZOLE] , give its reported Bacterial Biotransformation.
Completion: Compound NOT metabolized

Prompt: For the molecule CCOC(=O)[C@H](CCc1ccccc1)N[C@@H](C)C(=O)N1CCC[C@H]1C(=O)O.O=C(O)/C=C\C(=O)O [ENALAPRIL MALEATE] , give its reported Bacterial Biotransformation.
Completion: Compound NOT metabolized
